Source listed as ChEMBL document CHEMBL4689842.

- Tested on: Fibroblast
- Test Protocol: Multiplex assay against human fibroblast
- Assay type: toxicity, cell-based
- Condition Notes: 12 h, 10 µM, compound concentration 10 uM, replicate 2
Record form. Attribute: Population Apoptotic (%). Fill in for each entry.
Numbers only, in %.

Per the records, this compound ( COC(=O)C1=C(C)NC(C)=C(C(=O)OCCCN2CCC(c3ccccc3)(c3ccccc3)CC2)[C@H]1c1cccc([N+](=O)[O-])c1 ) has Population Apoptotic (%) equal to 76

Sample CC(C)(C)NC[C@H](O)COc1nsnc1N1CCOCC1 ; Population Apoptotic (%) observed: 33

Consider the additional compound presented here.
According to the records, this compound CC(C)c1noc(N2CCC(COc3ccc(-c4ccc(S(C)(=O)=O)cc4)nc3)CC2)n1 displays Population Apoptotic (%) of 42

----------
- System: HEK-293T
- Test Protocol: Multiplex assay against HEK293T;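 further: share of the cells with healthy nuclei that show this phenotype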
- Format: toxicity, cell-based
- Condition Notes: human, 24 h, 1 µM, compound concentration 1 uM, replicate 1
For each entry below, report its Population Tubulin-Different-Phenotype (%) value.
Numbers only, in %.

Measured Population Tubulin-Different-Phenotype (%) of CCOC(=O)Nc1cc(-c2ccc(C)c(NS(C)(=O)=O)c2)nn2c(C)nnc12 : 0

Measured Population Tubulin-Different-Phenotype (%), CCCSc1nc(N[C@@H]2C[C@H]2c2ccc(F)c(F)c2)c2nnn([C@@H]3C[C@H](OCCO)[C@@H](O)[C@H]3O)c2n1 : 45

The molecule identified as Cc1nc(N2CC[C@H](O)C2)ncc1-c1cc(C(F)(F)F)cc2[nH]ncc12 registered its Population Tubulin-Different-Phenotype (%) at 11

Population Tubulin-Different-Phenotype (%) recorded for this molecule, CC(C)(C)NC[C@H](O)COc1nsnc1N1CCOCC1 , is 41

// recorded Population Tubulin-Different-Phenotype (%) for CC(C)CC(=O)Nc1[nH]nc2c1CN(C(=O)C1CCN(C)CC1)C2(C)C : 4

For O=c1cc(N2CCOCC2)oc2c(-c3cccc4c3sc3ccccc34)cccc12 the molecule record lists Population Tubulin-Different-Phenotype (%) as 40

Please state, for each entry, its recorded Population Tubulin-Different-Phenotype (%).
1. C[C@]12CC[C@@H]3c4ccc(O)cc4CC[C@H]3[C@@H]1CC[C@@H]2O
2. CC(C)OC(=O)N1CCC(Oc2ncnc3c2cnn3-c2ccc(S(C)(=O)=O)cc2F)CC1

Response given:
[34, 35]

----------
- Tested on: U2OS
- Test Protocol: Multiplex assay against U2OS
- Assay type: toxicity, cell-based
- Condition Notes: human, 48 h, 1 µM, compound concentration 1 uM, replicate 1
Endpoint Label: Total Cell Count
Numbers only.

For every listed record, write down its Total Cell Count.
1. COc1cc(Nc2nccc(-c3cnn4nc(OC)ccc34)n2)cc(C(F)(F)F)c1
2. CCCSc1nc(N[C@@H]2C[C@H]2c2ccc(F)c(F)c2)c2nnn([C@@H]3C[C@H](OCCO)[C@@H](O)[C@H]3O)c2n1
3. CCc1ccc(OCc2ccccc2C(=O)Nc2ccc3nc(C)cc(N)c3c2)cc1.Cl
4. Cc1cccc(CN2CCN(C(c3ccccc3)c3ccc(Cl)cc3)CC2)c1.Cl.Cl (stereo not drawn)
5. CNC(=O)Nc1ccc(-c2nc(N3CC4CCC(C3)O4)c3cnn(C4CCC5(CC4)OCCO5)c3n2)cc1

Response given:
1. 257
2. 107
3. 377
4. 192
5. 93
